Tested on: HepG2 Srxn1-GFP reporter cells (+30 nM CDDO-Me)
Experiment: Srxn1-GFP intensity median modified Z-score relative to plate median; higher = stronger NRF2 / oxidative stress reporter activation, active = hit call of the paper
Conditions: 10 µM; exposure time: 24h
Among all 2,300 compounds or so, about 330 (14%) showed activity.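 The calls were made as follows: active = median modified Z-score above 1.96; inactive = 1.96 or below.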 Only a sample is shown.
Write down the outcome that applies. Available outcomes: true (1) (active), false (0) (inactive)

Worked cases, answers included:
COc1ccc(-c2cc(=O)c3c(O)c(OC)c(O[C@H]4O[C@H](CO[C@@H]5O[C@@H](C)[C@H](O)[C@@H](O)[C@H]5O)[C@@H](O)[C@H](O)[C@H]4O)cc3o2)cc1
false (0)
CN[C@@H]1[C@H](O)[C@H](NC)[C@H]2O[C@@]3(O)C(=O)C[C@@H](C)O[C@H]3O[C@@H]2[C@H]1O
false (0)
Clc1ccc(C(Cn2ccnc2)OCc2ccsc2Cl)c(Cl)c1 (stereo not given)
true (1)

Record request — test call for COc1cc(/C=C/C(=O)N2CC=CCC2=O)cc(OC)c1OC
false (0)

Record request — test call for CC(NCCc1ccc(O)cc1)C(O)c1ccc(O)cc1 (stereo not given)
false (0)

* * *

Measured Srxn1-GFP intensity median modified Z-score values are reported for all entries that follow.
Tested on: HepG2 Srxn1-GFP reporter cells (+30 nM CDDO-Me)
Assay: Srxn1-GFP intensity median modified Z-score relative to plate median; higher = stronger NRF2 / oxidative stress reporter activation, active = hit call of the paper
Settings: 10 µM; exposure time: 24h
Among all 2,300 compounds or so, about 330 (14%) showed activity. Not all results are given here.
Reply briefly: the number, and no unit.

The cases that follow already have their Srxn1-GFP intensity median modified Z-score on record.
O=C(/C=C/c1ccccc1)c1ccc(O)cc1
12.6
Cc1[nH]c(=O)[nH]c1O
-0.283
NC1(C(=O)O)CCCC1
-0.415
NS(=O)(=O)N1CCN(C(=O)OCC(F)(F)F)CC1
0.381
CCCCCC(CC(O)=NO)C(=O)NC(C(=O)N1CCCC1CO)C(C)C (configuration not stated)
11.7

Return the recorded Srxn1-GFP intensity median modified Z-score value; entry: CC(C)Cn1c(=O)n(C)c(=O)c2nc[nH]c21
0.0284

Return the recorded Srxn1-GFP intensity median modified Z-score value; entry: Oc1ccc2ccccc2c1
1.48

* * *

Measured Srxn1-GFP intensity median modified Z-score values are reported for all entries that follow.
Test system: HepG2 Srxn1-GFP reporter cells (+30 nM CDDO-Me)
Assay: Srxn1-GFP intensity median modified Z-score relative to plate median; higher = stronger NRF2 / oxidative stress reporter activation, active = hit call of the paper
Conditions: 10 µM; exposure time: 24h
Among all 2,300 compounds or so, about 330 (14%) showed activity. These entries were drawn from the full list.
Reply briefly: the number, and no unit.

COc1c(O)c(C)c(C=CC(C)=CCC=C(C)CCC=C(C)CCC=C(C)CCC=C(C)CCC=C(C)CCC=C(C)CCC=C(C)CCC=C(C)CCC=C(C)C)c(O)c1OC [euspeclibcmpd1853]
-0.0742
COc1c(C/C=C(\C)CCC(=O)OCCN2CCOCC2)c(O)c2c(O)occ2c1C [euspeclibcmpd688]
5.22
COc1cc(Cc2c[nH]c(=N)[nH]c2=N)cc(OC)c1OC [euspeclibcmpd310]
0.316
NC[C@@H]1O[C@H](O[C@@H]2[C@@H](CO)OC(O[C@@H]3[C@@H](O)[C@H](N)C[C@H](N)[C@H]3OC3O[C@H](CN)[C@@H](O)[C@H](O)[C@H]3N)[C@@H]2O)[C@H](N)[C@@H](O)[C@@H]1O (stereo partly drawn) [euspeclibcmpd206]
0.688
COc1c(C/C=C(\C)CCC(=O)O)c(O)c2c(O)occ2c1C [euspeclibcmpd334]
11.8

Return the recorded Srxn1-GFP intensity median modified Z-score value; entry: CC[C@@]1(O)CC(=O)c2c(cc3c(O)c4c(O)ccc(O)c4c(O)c3c2O)C1C(=O)OC (stereo partly drawn) [euspeclibcmpd1470]
70.7

Return the recorded Srxn1-GFP intensity median modified Z-score value; entry: Oc1c(Br)cc(Br)c2cccnc12 [euspeclibcmpd1032]
4.39

Return the recorded Srxn1-GFP intensity median modified Z-score value; entry: CCCCCCCC/C=C/CCCCCCCCOP(=O)(O)OCC[N+](C)(C)C [euspeclibcmpd1773]
1.28

Return the recorded Srxn1-GFP intensity median modified Z-score value; entry: O=Cc1ccccc1O[C@@H]1O[C@H](CO)[C@H](O)[C@@H](O)[C@H]1O [euspeclibcmpd1574]
0.476

Return the recorded Srxn1-GFP intensity median modified Z-score value; entry: Oc1c(I)cc(Cl)c2cccnc12
1.31

Return the recorded Srxn1-GFP intensity median modified Z-score value; entry: O=S(=O)(O)c1cc(I)c(O)c2ncccc12 [euspeclibcmpd2311]
-0.435

Return the recorded Srxn1-GFP intensity median modified Z-score value; entry: CC(C=Cc1c(C)c(O)c2ccccc2c1O)=CCC[C@H](C)CCC[C@H](C)CCCC(C)C [euspeclibcmpd621]
-0.697

Return the recorded Srxn1-GFP intensity median modified Z-score value; entry: CC(C)(C)CC(=O)OCC(=O)[C@@]1(O)CCC2C3CC=C4CC(=O)C=C[C@]4(C)C3[C@@H](O)C[C@@]21C (stereo partly drawn) [euspeclibcmpd2328]
-0.406

Return the recorded Srxn1-GFP intensity median modified Z-score value; entry: CCc1[nH]c(=N)[nH]c(=N)c1-c1ccc(Cl)cc1 [euspeclibcmpd259]
1.02

Return the recorded Srxn1-GFP intensity median modified Z-score value; entry: OC[C@H]1O[C@H](Oc2cc(O)cc(C=Cc3ccc(O)cc3)c2)[C@H](O)[C@@H](O)[C@@H]1O [euspeclibcmpd1401]
-0.514

Return the recorded Srxn1-GFP intensity median modified Z-score value; entry: CC(=O)OCC(=O)[C@@]1(O)CCC2C3CC=C4CC(=O)CC[C@]4(C)[C@@]3(F)[C@@H](O)C[C@@]21C (stereo partly drawn) [euspeclibcmpd127]
-0.373

Return the recorded Srxn1-GFP intensity median modified Z-score value; entry: COc1ccc2c(c1)OCc1c-2oc2cc(OC)ccc12 [euspeclibcmpd1708]
13.6

Return the recorded Srxn1-GFP intensity median modified Z-score value; entry: Oc1ccc(C=Cc2cc(O)cc(O)c2)cc1 [euspeclibcmpd1411]
12.1

Return the recorded Srxn1-GFP intensity median modified Z-score value; entry: CNCc1ccccc1 [euspeclibcmpd1631]
-0.463

Return the recorded Srxn1-GFP intensity median modified Z-score value; entry: COC(=O)C1CCN(C(=O)C(OC(=O)C2CCC(=O)NC2)C(C)C)CC1 (stereo not drawn)
0.378

Return the recorded Srxn1-GFP intensity median modified Z-score value; entry: O[C@@H]1[C@@H](O)[C@@H](O)OC[C@H]1O
0.871

Return the recorded Srxn1-GFP intensity median modified Z-score value; entry: CC(=O)OC=C1CSC2C(N)C(=O)N2C1C(=O)O (stereo not drawn) [euspeclibcmpd1380]
-0.0231

Return the recorded Srxn1-GFP intensity median modified Z-score value; entry: O=[N+]([O-])c1ccc(O)c2ncccc12 [euspeclibcmpd1218]
-0.363

Origin of the recorded values: the supplement of paper PMC10498489
